# Test system: CAL-120
# Assay Notes: normalised response (% of control), CellTiter-Glo; higher = more viable cells (100 = DMSO, 0 = benzethonium chloride kill control)
# Condition Description: incubation time: 72 h
Given measured normalised response, output Fulfilled if it is greater than or equal to 90% and Not fulfilled if not.

{"Compound": "CN(C)CCOc1ccc(/C(=C(/CCCl)c2ccccc2)c2ccccc2)cc1 [Toremifene] (10 nM)", "Classification": "Fulfilled"}
{"Compound": "COC(=O)c1ccc2c(c1)NC(=O)/C2=C(\\Nc1ccc(N(C)C(=O)CN2CCN(C)CC2)cc1)c1ccccc1 [Nintedanib] (10 nM)", "Classification": "Fulfilled"}
{"Compound": "CN(C)c1nc(N(C)C)nc(N(C)C)n1 [Altretamine] (1 nM)", "Classification": "Fulfilled"}
{"Compound": "CCc1c2c(nc3ccc(OC(=O)N4CCC(N5CCCCC5)CC4)cc13)-c1cc3c(c(=O)n1C2)COC(=O)[C@]3(O)CC [Irinotecan] (1000 nM)", "Classification": "Not fulfilled"}
{"Compound": "COc1cc2c(NC3CCN(C(C)C)CC3)nc(N3CCC(F)(F)CC3)nc2cc1OCCCN1CCCC1 [UNC0642] (1 nM)", "Classification": "Fulfilled"}

Answer whether normalised response of Cc1ccc(NC(=O)c2ccc(CN3CCN(C)CC3)cc2)cc1Nc1nc(-c2cccnc2)cs1 [Masitinib] (1000 nM) is greater than or equal to 90%.
Fulfilled

Confirm if normalised response reported for the compound Cc1cc(Nc2cc(CN3CCOCC3)c3nc(C)c(Cc4ccc(Cl)cc4F)n3n2)n[nH]1 [Gandotinib] (10 nM) is 90% or above.
Fulfilled

Could you tell me if the measured normalised response of S=P(N1CC1)(N1CC1)N1CC1 [Thio-TEPA] (50 nM) reaches 90% or more?
Fulfilled

Exam item: decide whether the reported normalised response for CO[C@H]1C[C@@H]2CC[C@@H](C)[C@@](O)(O2)C(=O)C(=O)N2CCCC[C@H]2C(=O)O[C@H]([C@H](C)C[C@@H]2CC[C@@H](OP(C)(C)=O)[C@H](OC)C2)CC(=O)[C@H](C)/C=C(\C)[C@@H](O)[C@@H](OC)C(=O)[C@H](C)C[C@H](C)/C=C/C=C/C=C/1C [Ridaforolimus] (10 nM) is at least 90%.
Not fulfilled

normalised response >= 90% for NC(=O)c1ccc(I)c([N+](=O)[O-])c1 [Iniparib] (1000 nM) ?
Fulfilled

Kindly determine if normalised response recorded for COC(=O)c1ccc2c(c1)NC(=O)/C2=C(\Nc1ccc(N(C)C(=O)CN2CCN(C)CC2)cc1)c1ccccc1 [Nintedanib] (1 nM) is above or exactly 90%.
Fulfilled

Record CC(C)C[C@@H](C(=O)N[C@H](C(=O)OC1CCCC1)c1ccccc1)[C@H](O)C(=O)NO [Tosedostat] (1000 nM) ; criterion: normalised response no lower than 90%. Met?
Not fulfilled

# check: normalised response of c1ccc2c(CCNc3ccc(Nc4ccncc4)cc3)c[nH]c2c1 [Serdemetan] (1 nM) is greater than or equal to 90%
Fulfilled

* * *

# Test system: CAL-85-1
# Assay Notes: normalised viability (% of control), CellTiter-Blue; higher = more viable cells (100 = DMSO, 0 = benzethonium chloride kill control)
# Condition Description: incubation time: 72 h
The following compounds are listed with their measured normalised viability values.

{"Compound": "COCC[n+]1c2c(n(Cc3cnccn3)c1C)C(=O)c1ccccc1C2=O [YM155] (1 nM)", "normalised viability": "107%"}
{"Compound": "N#Cc1ccc(COC[C@H]2O[C@@H](n3c(NCc4ccc(Cl)c(Cl)c4)nc4c(N)ncnc43)[C@H](O)[C@@H]2O)cc1 (1 nM)", "normalised viability": "98.4%"}
{"Compound": "O=C(/C=C/c1cccc(S(=O)(=O)Nc2ccccc2)c1)NO [Belinostat] (1 nM)", "normalised viability": "92.5%"}

Can you share its normalised viability? I mean this compound: Cc1ccc(NC(=O)c2ccc(CN3CCN(C)CC3)cc2)cc1Nc1nc(-c2cccnc2)cs1 [Masitinib] (1 nM)
92.5%
